Reference for the values: patent US10072023B2

Experiment: Absorbance at photostationary state (PSS) under simulated sunlight or 365 nm light
Type: physicochemical
Details: simulated sunlight (QSUN solar simulator), no UV blocking film; 2.0×10^−5 M in triglyme
Experimental: Absorbance at a PSS for selected compounds was measured at 2.0×10^−5 M in triglyme in the absence (full) or presence (+UV) of a UV blocking film with a UV cutoff wavelength of 370 nm (10% transmission at 370 nm), using simulated sunlight (QSUN solar simulator) as a light source, or a 365 nm light source; these PSS are reported in Tables 1.5. […]
metric: Absorbance at PSS, full
Keep it simple and answer with nothing but the number.

In: Returns the measured Absorbance at PSS, full for the input compound. Input: CC(C)(C)c1ccc(-c2cc(C3=C(c4cc(-c5ccc(C(C)(C)C)s5)sc4-c4ccc(OCCCCC#N)cc4)C(F)(F)C(F)(F)C3(F)F)c(-c3ccc(OCCCCC#N)cc3)s2)s1
Out: 0.322

In: State the recorded Absorbance at PSS, full for this entry: COc1ccc(-c2oc3cc(OC)ccc3c2C2=C(c3c(-c4ccc(OC)cc4)oc4cc(OC)ccc34)C(F)(F)C(F)(F)C2(F)F)cc1
Out: 0.065

In: Query (compound): COc1ccc(-c2sc(-c3ccc(OCCOc4ccc(N(c5ccc(Cl)cc5)c5ccc(Cl)cc5)cc4)cc3)cc2C2=C(c3cc(-c4ccc(OCCOc5ccc(N(c6ccc(Cl)cc6)c6ccc(Cl)cc6)cc5)cc4)sc3-c3ccc(OC)cc3)C(F)(F)C(F)(F)C2(F)F)cc1 ; field requested: Absorbance at PSS, full
Out: 0.107

---

Experiment: Absorbance at photostationary state (PSS) under simulated sunlight or 365 nm light
Type: physicochemical
Details: simulated sunlight (QSUN solar simulator), no UV blocking film; 2.0×10^−5 M in triglyme
metric: Absorbance at PSS, full
Give only the figure.

In: Quick one: Absorbance at PSS, full of CC(C)(C)c1ccc(-c2oc3cc4c(cc3c2C2=C(c3c(-c5ccc(C(C)(C)C)cc5)oc5cc6c(cc35)OCO6)C(F)(F)C(F)(F)C2(F)F)OCO4)cc1 ?
Out: 0.252

In: Quick one: Absorbance at PSS, full of FC1(F)C(c2nc(-c3ccccc3)sc2-c2ccccc2)=C(c2nc(-c3ccccc3)sc2-c2ccccc2)C(F)(F)C1(F)F ?
Out: 0.05

In: Can you look up the measured Absorbance at PSS, full of COCCOCCOCCOC(C)(C)c1ccc(-c2cc(C3=C(c4cc(-c5ccc(C(C)(C)OCCOCCOCCOC)cc5)sc4-c4ccc(C(C)(C)C)cc4)C(F)(F)C(F)(F)C3(F)F)c(-c3ccc(C(C)(C)C)cc3)s2)cc1 for me?
Out: 0.111

---

Assay: Absorbance at photostationary state (PSS) under simulated sunlight or 365 nm light
Format: physicochemical
Settings: simulated sunlight with UV blocking film (cutoff 370 nm); 2.0×10^−5 M in triglyme
metric: Absorbance at PSS, +UV
API doc: respond with a numeric literal and nothing else, no unit.

In: # Absorbance at PSS, +UV lookup, item CC(C)(C)c1ccc(-c2cc(C3=C(c4cc(-c5ccc(C(C)(C)C)s5)sc4-c4ccc(O)cc4)C(F)(F)C(F)(F)C3(F)F)c(-c3ccc(O)cc3)s2)s1
Out: 0.134

In: Recorded Absorbance at PSS, +UV of COCCC[Si](CCCOC)(CCCOC)c1ccc(-c2sc(-c3ccc(C(C)(C)C)s3)cc2C2=C(c3cc(-c4ccc(C(C)(C)C)s4)sc3-c3ccc([Si](CCCOC)(CCCOC)CCCOC)s3)C(F)(F)C(F)(F)C2(F)F)s1 , please.
Out: 0.291

In: Name the recorded Absorbance at PSS, +UV for COc1ccc(-c2sc(-c3ccc(C#N)cc3)cc2C2=C(c3cc(-c4ccc(C#N)cc4)sc3-c3ccc(OC)cc3)C(F)(F)C(F)(F)C2(F)F)cc1 .
Out: 0.08

In: Request the reported Absorbance at PSS, +UV associated with Cc1csc(-c2cc(C3=C(c4cc(-c5cc(C)cs5)sc4-c4cc(C)cs4)C(F)(F)C(F)(F)C3(F)F)c(-c3cc(C)cs3)s2)c1
Out: 0.169

In: Item CC(C)(C)c1ccc(-c2sc(-c3ccc(C4(C)OCCO4)cc3)cc2C2=C(c3cc(-c4ccc(C5(C)OCCO5)cc4)sc3-c3ccc(C(C)(C)C)cc3)C(F)(F)C(F)(F)C2(F)F)cc1 has what recorded Absorbance at PSS, +UV?
Out: 0.049

In: Given the compound CC(C)(C)c1ccc(-c2sc(-c3ccccc3)cc2C2=C(c3cc(-c4ccccc4)sc3-c3ccc(C(C)(C)C)cc3)C(F)(F)C(F)(F)C2(F)F)cc1 , what is its reported Absorbance at PSS, +UV?
Out: 0.033

In: Fill in: Absorbance at PSS, +UV of CC(C)(C)c1ccc(-c2cc(C3=C(c4cc(-c5ccc(C(C)(C)C)cc5)sc4-c4cccs4)C(F)(F)C(F)(F)C3(F)F)c(-c3cccs3)s2)cc1 is ___
Out: 0.044

In: What measured Absorbance at PSS, +UV goes with c1ccc(-c2nc(-c3cc(-c4cccs4)sc3-c3cccs3)c(-c3cc(-c4cccs4)sc3-c3cccs3)s2)cc1 ?
Out: 0.031

In: Return reported Absorbance at PSS, +UV; argument: CC(C)(C)c1ccc(-c2oc3cc4c(cc3c2C2=C(c3c(-c5ccc(C(C)(C)C)cc5)oc5cc6c(cc35)OCO6)C(F)(F)C(F)(F)C2(F)F)OCO4)cc1
Out: 0.116

In: Quick one: Absorbance at PSS, +UV of CC(C)(C)c1ccc(-c2cc(C3=C(c4cc(-c5ccc(C(C)(C)C)s5)sc4-c4ccc(OCCCCC#N)cc4)C(F)(F)C(F)(F)C3(F)F)c(-c3ccc(OCCCCC#N)cc3)s2)s1 ?
Out: 0.216

In: Record request: Absorbance at PSS, +UV value, item COc1ccc(-c2sc(-c3ccc(/C=C/c4ccccc4)cc3)cc2C2=C(c3cc(-c4ccc(/C=C/c5ccccc5)cc4)sc3-c3ccc(OC)cc3)C(F)(F)C(F)(F)C2(F)F)cc1
Out: 0.132

In: Which Absorbance at PSS, +UV value is on record for COCCC[Si](CCCOC)(CCCOC)c1ccc(-c2cc(C3=C(c4cc(-c5ccc([Si](CCCOC)(CCCOC)CCCOC)s5)sc4-c4ccc([Si](CCCOC)(CCCOC)CCCOC)s4)C(F)(F)C(F)(F)C3(F)F)c(-c3ccc([Si](CCCOC)(CCCOC)CCCOC)s3)s2)s1 ?
Out: 0.262

In: Quick check: Absorbance at PSS, +UV of Oc1ccc(-c2cc(C3=C(c4cc(-c5ccc(O)cc5)sc4-c4ccc(O)cc4)C(F)(F)C(F)(F)C3(F)F)c(-c3ccc(O)cc3)s2)cc1 ?
Out: 0.051

In: Given FC1(F)C(c2cc(-c3ccc(Cl)s3)sc2-c2ccc(Cl)s2)=C(c2cc(-c3ccc(Cl)s3)sc2-c2ccc(Cl)s2)C(F)(F)C1(F)F , state its recorded Absorbance at PSS, +UV.
Out: 0.196

In: Given the entry CC(C)(C)c1ccc(-c2cc(C3=C(c4cc(-c5ccc(C(C)(C)C)s5)sc4-c4ccc(OCCCCC(=O)O)cc4)C(F)(F)C(F)(F)C3(F)F)c(-c3ccc(OCCCCC(=O)O)cc3)s2)s1 , report its measured Absorbance at PSS, +UV.
Out: 0.183

In: Which Absorbance at PSS, +UV is reported for this compound? C[Si](C)(C)c1ccc(-c2cc(C3=C(c4cc(-c5ccc([Si](C)(C)C)s5)sc4-c4ccc([Si](C)(C)C)s4)C(F)(F)C(F)(F)C3(F)F)c(-c3ccc([Si](C)(C)C)s3)s2)s1
Out: 0.224

In: Return reported Absorbance at PSS, +UV; argument: COc1ccc2c(C3=C(c4c(-c5ccc(C)s5)oc5cc(OC)ccc45)C(F)(F)C(F)(F)C3(F)F)c(-c3ccc(C)s3)oc2c1
Out: 0.04

In: Tell me the measured Absorbance at PSS, +UV of COc1ccc(-c2oc3ccc(OC)cc3c2C2=C(c3c(-c4ccc(OC)cc4)oc4ccc(OC)cc34)C(F)(F)C(F)(F)C2(F)F)cc1 , please.
Out: 0.008

In: Query: Absorbance at PSS, +UV; subject: N#Cc1ccc(-c2ccc(-c3cc(C4=C(c5cc(-c6ccc(-c7ccc(C#N)s7)s6)sc5-c5cccs5)C(F)(F)C(F)(F)C4(F)F)c(-c4cccs4)s3)s2)s1
Out: 0.355

In: Can you look up the measured Absorbance at PSS, +UV of CC(C)(C)c1ccc(-c2cc(C3=C(c4cc(-c5ccc(C(C)(C)C)s5)sc4-c4ccc(C(=O)O)s4)C(F)(F)C(F)(F)C3(F)F)c(-c3ccc(C(=O)O)s3)s2)s1 for me?
Out: 0.295

In: For the compound shown here, CC(=O)c1ccc(-c2cc(C3=C(c4cc(-c5ccccc5)sc4-c4ccc(C(C)(C)C)cc4)C(F)(F)C(F)(F)C3(F)F)c(-c3ccc(C(C)(C)C)cc3)s2)cc1 , give the reported Absorbance at PSS, +UV.
Out: 0.054

In: May I ask what Absorbance at PSS, +UV has been recorded for COc1ccc(-c2oc3cc(OC)ccc3c2C2=C(c3c(-c4ccc(OC)cc4)oc4cc(OC)ccc34)C(F)(F)C(F)(F)C2(F)F)cc1 ?
Out: 0.032
